Target: Receptor tyrosine-protein kinase erbB-4 (Homo sapiens) (UniProt Q15303)
Sequence (Q15303 whole entry, looked up): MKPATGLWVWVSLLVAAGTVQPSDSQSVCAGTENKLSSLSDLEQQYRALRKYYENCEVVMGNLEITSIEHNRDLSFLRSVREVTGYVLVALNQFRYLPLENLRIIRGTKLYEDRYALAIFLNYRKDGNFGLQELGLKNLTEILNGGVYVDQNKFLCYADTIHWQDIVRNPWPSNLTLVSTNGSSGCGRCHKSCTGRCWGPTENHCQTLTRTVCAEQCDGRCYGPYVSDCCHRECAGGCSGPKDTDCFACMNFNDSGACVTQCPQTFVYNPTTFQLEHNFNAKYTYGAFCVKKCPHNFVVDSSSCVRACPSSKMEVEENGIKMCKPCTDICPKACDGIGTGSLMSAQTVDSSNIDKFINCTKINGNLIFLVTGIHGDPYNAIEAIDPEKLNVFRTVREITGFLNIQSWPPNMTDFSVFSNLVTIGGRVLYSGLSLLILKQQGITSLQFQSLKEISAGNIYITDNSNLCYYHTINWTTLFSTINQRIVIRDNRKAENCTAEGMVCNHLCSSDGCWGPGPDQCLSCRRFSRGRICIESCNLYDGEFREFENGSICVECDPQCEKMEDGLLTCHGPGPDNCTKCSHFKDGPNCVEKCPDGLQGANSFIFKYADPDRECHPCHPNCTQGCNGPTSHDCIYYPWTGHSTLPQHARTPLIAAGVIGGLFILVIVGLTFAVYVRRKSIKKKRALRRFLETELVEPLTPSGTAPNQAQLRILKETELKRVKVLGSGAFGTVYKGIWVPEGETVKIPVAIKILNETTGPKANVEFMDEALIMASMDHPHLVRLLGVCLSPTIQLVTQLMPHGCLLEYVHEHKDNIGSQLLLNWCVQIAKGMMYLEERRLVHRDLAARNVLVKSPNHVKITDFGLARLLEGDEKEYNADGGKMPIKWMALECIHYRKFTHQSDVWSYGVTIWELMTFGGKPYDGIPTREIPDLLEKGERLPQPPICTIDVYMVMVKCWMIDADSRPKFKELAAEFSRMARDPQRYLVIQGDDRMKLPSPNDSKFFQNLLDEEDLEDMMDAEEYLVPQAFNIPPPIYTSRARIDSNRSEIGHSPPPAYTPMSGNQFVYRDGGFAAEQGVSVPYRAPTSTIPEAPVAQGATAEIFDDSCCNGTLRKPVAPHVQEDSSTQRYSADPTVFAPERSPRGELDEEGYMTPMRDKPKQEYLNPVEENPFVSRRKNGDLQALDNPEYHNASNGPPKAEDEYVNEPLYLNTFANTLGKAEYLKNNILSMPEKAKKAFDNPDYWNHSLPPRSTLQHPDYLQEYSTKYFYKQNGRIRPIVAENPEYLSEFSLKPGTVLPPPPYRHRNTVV
Experiment: ERBB4 kinase inhibitors, dose response, biochemical, Z'-LYTE FRET, direct format, recombinant human (AID 1671295)
Settings: Z'-LYTE FRET kinase activity
Property Label: IC50

Entry "COc1cc2ncnc(Nc3cccc(Cl)c3)c2cc1OC" has what IC50?
0.154 µM
